- experiment description: stability in human plasma
- Format: in vitro ADME
- measurement setup: fresh human plasma, 37 °C, 30 minutes, read-out: K6% of degradation
Where a SMILES comes first, the peptide text is derived from it. [ ]: non-standard residue; d: D form. Kyn = Nc1ccccc1C(=O)C[C@H](N)C(=O)O
measured attribute: metabolised at 0.5 h, 200 μg/mL (%)
Record the value in %, omitting the unit from your answer.

# get_value(readout='metabolised at 0.5 h, 200 μg/mL', item= C[C@@H](NC(=O)[C@@H](N)Cc1ccc(O)cc1)C(=O)NCC(=O)N[C@@H](Cc1ccccc1)C(=O)N[C@@H](CC(=O)c1ccccc1N)C(N)=O [Peptide K6] (H-Y[dA]GF[Kyn]-NH2) )
36
